Assay Details: TIMS collisional cross section (CCS, N2) of the lipid ion; higher = larger ion cross section
Condition Info: sample type: HeLa; ionization mode: positive; one isomer drawn
Observable: TIMS collisional cross section (Å²)

CCCCCCCCCCCCCCCCCCCCCC(=O)OC[C@@H](COC(=O)CCCCCCCCCCCCCCC)OC(=O)CCCCCCCCCCCCCCCCC [TG 16:0_18:0_22:0] (ion (formula + adduct): [C59H114O6+NH4] 1+) :: 337.8
CCCCCCCCCCCCCCCCCCCCCCCC(=O)OC[C@@H](O)COP(=O)([O-])OCC[N+](C)(C)C [LPC 24:0] (ion (formula + adduct): [C32H66NO7P+H] 1+) :: 258.5
CCCCCCCC/C=C\CCCCCCCC(=O)O[C@H](COCCCCCCCCCCCCCCCC)COP(=O)([O-])OCC[N+](C)(C)C [PC O- 16:0@_18:1] (ion (formula + adduct): [C42H84NO7P+H] 1+) :: 290.7
CC/C=C\C/C=C\C/C=C\C/C=C\C/C=C\C/C=C\CCC(=O)O[C@H](COC(=O)CCC/C=C\C/C=C\C/C=C\C/C=C\CCCCC)COP(=O)(O)OCCN [PE 20:4@_22:6] (ion (formula + adduct): [C47H74NO8P+H] 1+) :: 284.8
CC/C=C\C/C=C\C/C=C\C/C=C\C/C=C\C/C=C\CCC(=O)OC[C@H](COP(=O)(O)OCCN)OC(=O)CCCCCCC/C=C\CCCCCC [PE 22:6@_16:1] (ion (formula + adduct): [C43H72NO8P+H] 1+) :: 275
